Reported pIC50 values for a set of compounds
- Tested on: HCT116
- test_summary: Test A: Cytostatic Cell Culture Assay (GI50), HCT116
- Assay type: cell-based
- setup_conditions: Homo sapiens, HCT-116, 120 h; HCT116 cells, 5 days, SRB; read-out: G150 Colon HCT116
// pIC50 here means minus log10 of the molar concentration (mol/L)

Please review the following examples before continuing.
{"columns": ["molecular_string", "pIC50"],
 "data": [
  ["OC[C@H]1O[C@@H](n2cc(Cl)c3c(-c4ccsc4)ncnc32)[C@H](O)[C@@H]1O", 7.00],
  ["OC[C@H]1O[C@@H](n2cc(F)c3c(-c4ccsc4)ncnc32)[C@H](O)[C@@H]1O", 6.84]
]}

Give me measured pIC50, please, for this compound: `OC[C@H]1O[C@@H](n2cc(F)c3c(-c4cccs4)ncnc32)[C@H](O)[C@@H]1O` 8.05

// fetch pIC50 given entry `OC[C@H]1O[C@@H](n2ccc3c(-c4cc[nH]c4)ncnc32)[C@H](O)[C@@H]1O` 6.30
